The origin of these recorded values is the supplement of paper PMC9170038.

test system: MS2 coat protein; assay: apparent KD of MS2 coat protein; higher = weaker reporter binding; details: Eterna round: R107; input ligand: arginine 13.2 mM
# apparent KD of MS2 coat protein values compiled below

| biopolymerSequence | valueUnits | apparent KD of MS2 coat protein |
| --- | --- | --- |
| AAUUCCUCACAUGAGGAUCACCCAUGUGAAGGAGCGCCGAAUAAGGCAGGUAGGUCGCACAUGGAAACCGCUACGAAAGUAGCAA | µM | 0.0131 |
| ACAUGAAGAACAGCGGUGGGCGCGCUCGAUACCAGUACUUUGAUUUACCCUUGGCAGCGACAUGAGGAUCACCCAUGUGAGAUGA [XTheo A #1] | µM | 0.0169 |
| AGUGUUAUAACUGAUACCAGACCUUUGCUUAUACAUGAGGAUCACCCAUGUAAAAUGGCGGUCCCUUGGCAGCAGAGAAUACACA [#08 Same State - Theophylline B] | µM | 0.0302 |
